Biological target: human mAChR M1 (Homo sapiens, UniProt P11229)
Sequence (P11229 whole entry): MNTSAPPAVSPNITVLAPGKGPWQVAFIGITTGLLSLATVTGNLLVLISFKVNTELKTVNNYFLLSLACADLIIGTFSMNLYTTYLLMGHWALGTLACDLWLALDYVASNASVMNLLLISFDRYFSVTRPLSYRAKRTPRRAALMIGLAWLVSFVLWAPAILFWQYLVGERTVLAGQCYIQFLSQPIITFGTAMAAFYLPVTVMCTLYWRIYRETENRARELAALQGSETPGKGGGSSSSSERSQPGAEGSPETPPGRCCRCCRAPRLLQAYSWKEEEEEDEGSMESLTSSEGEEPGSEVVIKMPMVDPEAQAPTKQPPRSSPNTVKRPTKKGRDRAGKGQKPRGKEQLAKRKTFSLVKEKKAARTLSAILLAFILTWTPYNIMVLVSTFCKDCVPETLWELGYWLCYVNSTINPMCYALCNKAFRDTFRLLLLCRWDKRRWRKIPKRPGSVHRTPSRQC
Experiment: mAChR M1 cell-based functional assay (calcium mobilization), agonist mode: compound alone, Emax relative to acetylcholine maximum
Conditions: human mAChR M1
pEC50: −log10 of the molar value.
measure_name: pEC50

A selection of reference data follows.
Q: I am curious: what pEC50 value has been reported for [2H]C1([2H])c2ncccc2C(=O)N1Cc1ccc(-c2ccc(OC[C@@H](C)OC)c3nn(C)cc23)cc1F ?
A: ≤ 5.00

Q: Recorded pEC50 of [2H]C1([2H])c2ncccc2C(=O)N1Cc1c(F)cc(-c2ccc(OCC3CCO3)c3nn(C)cc23)cc1F (stereo not drawn) , please.
A: 5.12

Alright, here's another compound for you.
Q: # pEC50 lookup, item [2H]C1([2H])c2ncccc2C(=O)N1Cc1c(F)cc(-c2ccc(OC3CC3)c3nn(C([2H])([2H])[2H])cc23)cc1F
A: ≤ 5.00
